Record form. Attribute: protein stability index. Fill in for each entry.
testMethodNotes: protein stability index of a GFP-peptide fusion (yeast GPS) (PSI 1-4); higher = more stable; sorted into four equal gates, so the index is relative within each strain
conditionDescription: doa10∆
No unit in the answer, only the number.

q: Provide only the value of recorded protein stability index for KPFRQTKFKVRGSSSLY [RPL38]
a: 2.83

q: Provide only the value of recorded protein stability index for LVNGFSQSQQKLLKEKV [MED2]
a: 2.03

q: Provide only the value of recorded protein stability index for LPLATQQQVLNKLRQQA [SNF5]
a: 2.56

q: Provide only the value of recorded protein stability index for VEIAFLFRAIYLYCLDN [YCG1]
a: 1.54

q: Provide only the value of recorded protein stability index for MGVPIYGIVAMAATATD [FAS2]
a: 1.34

q: Provide only the value of recorded protein stability index for PLLTKRKDLRDKLICSI [DIS3]
a: 2.55

q: Provide only the value of recorded protein stability index for STSLGIPDFRSSEGFYS [SIR2]
a: 1.85

q: Provide only the value of recorded protein stability index for DPRHIQLLGDVMTYKGE [RPO31]
a: 2.91

q: Provide only the value of recorded protein stability index for AAPKKTRKAVRPQKLRA [RPL6B]
a: 2.64

q: Provide only the value of recorded protein stability index for EESLTVLNCLRTMYFIL [YJR042W/NUP85]
a: 2.54

q: Provide only the value of recorded protein stability index for NGTTVWGTLQSVSPQMN [SMD1]
a: 3.57

q: Provide only the value of recorded protein stability index for IFCVGSGQTFAYGVLDS [PRE2]
a: 2.49

q: Provide only the value of recorded protein stability index for AAGNASSLPPGEILLPD [SNF5]
a: 3.15

q: Provide only the value of recorded protein stability index for MQKQHEMKTQAAELQEK [SNF6]
a: 1.79

q: Provide only the value of recorded protein stability index for DEEMAVLTRMDEDRSKK [SNF2]
a: 3.17

* * *

testMethodNotes: protein stability index of a GFP-peptide fusion (yeast GPS) (PSI 1-4); higher = more stable; sorted into four equal gates, so the index is relative within each strain
conditionDescription: pdr5∆
endpointLabel: protein stability index
No unit in the answer, only the number.

q: Provide only the value of recorded protein stability index for FKVYEPLLLVGLDKFSN [RPS16A]
a: 1.96

q: Provide only the value of recorded protein stability index for LNQINGLNNDFLFQNIN [GRR1]
a: 2.13

q: Provide only the value of recorded protein stability index for EWKSNHKKKRSNAAGAD [SRB8]
a: 1.72

q: Provide only the value of recorded protein stability index for SNGFNNVTFGSKKDPRI [YMR153W/NUP53]
a: 2.74

q: Provide only the value of recorded protein stability index for AQLTHSLRRIRDEMSKA [MED8]
a: 2.35

q: Provide only the value of recorded protein stability index for EAIRDPKNSSSPVQIAF [SSN8]
a: 2.96

q: Provide only the value of recorded protein stability index for NTGGESVVKKEDNKYAI [RGR1]
a: 3.39

q: Provide only the value of recorded protein stability index for GLFQVLHNFESVAPTKQ [NUT1]
a: 2.87

q: Provide only the value of recorded protein stability index for EEKEKEQSKEVGDVVGG [BRN1]
a: 3.52

q: Provide only the value of recorded protein stability index for QPYEDRPFEGLFVISTE [RRP45]
a: 3.12

q: Provide only the value of recorded protein stability index for SYDVENVNSRNQLVEPN [SRB5]
a: 3.26

q: Provide only the value of recorded protein stability index for KKVVLRLECVKCKTRAQ [RPL42A]
a: 2.03

q: Provide only the value of recorded protein stability index for LQQQQQVVTTVASQSPH [SNF6]
a: 1.92

q: Provide only the value of recorded protein stability index for TPANNGENAAEKPDNSN [SNF2]
a: 2.24

q: Provide only the value of recorded protein stability index for SNMQKSLLPYYHLTKAV [RPN3]
a: 1.87

q: Provide only the value of recorded protein stability index for LLTSAGCKNGSFTLLNQ [NUT1]
a: 2.32

q: Provide only the value of recorded protein stability index for SIPMGGQSINDSLKKLL [ARP9]
a: 2.46

q: Provide only the value of recorded protein stability index for MKAVRKVAEVKKLEGTI [RPT4]
a: 3.2

q: Provide only the value of recorded protein stability index for LTGNQLPTPTPTEMEPD [SWI1]
a: 2.92

q: Provide only the value of recorded protein stability index for NLRTQVTQQKRSLDENR [SMC1]
a: 3.09

q: Provide only the value of recorded protein stability index for NLFSSTGFKGLLIELQA [SRB2]
a: 2.87

q: Provide only the value of recorded protein stability index for VPAVVDDPLENMFGDYS [SNF6]
a: 3.48

q: Provide only the value of recorded protein stability index for DPFFAQSEDLSHAVEFF [YML103C/NUP188]
a: 3.17

q: Provide only the value of recorded protein stability index for ASFFFMVMFMHMAKGLY [COB]
a: 1.58

q: Provide only the value of recorded protein stability index for SLKGYKIENSVQIGAEI [CSI1]
a: 3.21

q: Provide only the value of recorded protein stability index for VKWQYDPNNPVDFDGLD [SNF12]
a: 3.02

q: Provide only the value of recorded protein stability index for SFTDILKSAIRDEIAKN [RPN12]
a: 2.98

q: Provide only the value of recorded protein stability index for LNTLNNVVEIWVFSYLR [SIR3]
a: 1.6

q: Provide only the value of recorded protein stability index for LVNGFSQSQQKLLKEKV [MED2]
a: 2.27

q: Provide only the value of recorded protein stability index for QAQAQAQAQAQAQAQAH [GAL11]
a: 3.05

q: Provide only the value of recorded protein stability index for NLWKNIFLSKENSAVAA [COR1]
a: 2.24
